- Tested on: Mus musculus
- assay-overview: Antiepileptic activity in CF1 mouse assessed as inhibition of maximal electroshock-induced seizures at 300 mg/kg, ip after 0.5 hrs
- Type: functional, organism-based
- Parameters: dose 300 mg/kg
The source made the active and inactive calls. No cut-off for these calls is given here.
Your answer must be one of the following: 1.0 for active, 0.0 for inactive

[
  {
    "compound": "CCC(CC)C(N)=O",
    "class-name": 1.0
  }
]

Continue with the next compound.
Problem: Hi team, can someone confirm the assay call for CCC(C)C(C(N)=O)C(C)C (stereo not given) ?
Result: 1.0

###

- Test system: Mus musculus
- assay-overview: Antiepileptic activity in CF1 mouse assessed as inhibition of maximal electroshock-induced seizures at 300 mg/kg, ip after 0.5 hrs
- Assay type: functional, organism-based
- Design: dose 300 mg/kg
The source made the active and inactive calls. The rule behind the calls is not given here.
Your answer must be one of the following: active, inactive

Please review the entries below; each comes with its answer.
[
  {
    "molecule": "CC(C)C(C(N)=O)C(C)(C)C (configuration not stated)",
    "class-name": "active"
  },
  {
    "molecule": "CCCC(C(=O)NC(N)=O)C(C)C (configuration not stated)",
    "class-name": "inactive"
  }
]

Problem: Hi team, can someone confirm the assay call for CCC(C(N)=O)C(C)C (configuration not stated) ?
Result: active

Problem: Hi team, can someone confirm the assay call for CCCC(C(N)=O)C(C)(C)C (configuration not stated) ?
Result: active

Problem: Hi team, can someone confirm the assay call for CC(C)(C)CC(N)=O ?
Result: inactive

Problem: Hi team, can someone confirm the assay call for CCCC(C)C(N)=O (configuration not stated) ?
Result: inactive

Problem: Hi team, can someone confirm the assay call for CCCCC(CC)C(=O)NC(N)=O (configuration not stated) ?
Result: active

Problem: Hi team, can someone confirm the assay call for CCC(C(N)=O)C(C)(C)C (configuration not stated) ?
Result: inactive

Problem: Hi team, can someone confirm the assay call for CC(C)C(C)C(N)=O (configuration not stated) ?
Result: inactive
